# Test system: SK-MEL-5 melanoma
# protocol-summary: NCI tumour cell line growth inhibition, 48 h
Entries annotated with measured TGI
Field format: number, assumed µM, no unit text.

# annotated cases, reported TGI shown
Report TGI for CN1CCN(CCCN2c3ccccc3Sc3ccc(Cl)cc32)CC1 tested on SK-MEL-5 melanoma. 62

Report TGI for COc1ccc2nc3cccc([N+](=O)[O-])c3c(NC(C)CN(C)C)c2c1 (stereo not drawn) tested on SK-MEL-5 melanoma. 2.49

Report TGI for CCNCCNc1cc(-c2ccc(C(F)(F)F)cc2)c(C#N)c2nc3cc(Cl)c(Cl)cc3n12 tested on SK-MEL-5 melanoma. 3.04

Report TGI for COc1ccccc1NC(=O)CC(=O)N1N=C(c2ccccc2)C(N=Nc2ccc(Cl)cc2)C1=O (stereo not drawn) tested on SK-MEL-5 melanoma. 42

Report TGI for CN(C)CC1CCC/C(=C\c2ccccc2)C1=O (stereo not drawn) tested on SK-MEL-5 melanoma. 21.4

***
Report TGI for CC(=O)NC1COC(COC(=O)CCCCCCCCCCNC(=O)c2ccc([N+](=O)[O-])c3c(=O)c4ccccc4[nH]c23)C(O)C1OC(C)C(=O)NC(C(=O)NC(CCC(N)=O)C(=O)OCc1ccccc1)C(C)C (stereo not drawn) tested on SK-MEL-5 melanoma. 57.9

Report TGI for c1ccc2c(CNCCCCCCCCNCc3cccc4ccccc34)cccc2c1 tested on SK-MEL-5 melanoma. 3.32

Report TGI for COc1ccc(Cn2cc3c(c2-c2cc(OC)c(OC)c(OC)c2)CCc2c(CO)noc2-3)cc1 tested on SK-MEL-5 melanoma. 11.9

Report TGI for CC(C)(C)c1cc(-c2nc3ccc(N4CCN(CCO)CC4)cc3[nH]2)cc(C(C)(C)C)c1O tested on SK-MEL-5 melanoma. 3.14

###

# Test system: A498 renal
# protocol-summary: NCI tumour cell line growth inhibition, 48 h; in the data active = GI50 below about 0.43 µM; inactive = the rest
The reply should name one outcome from active, inactive

Study these solved cases before continuing.
What outcome does the record of this test show for COc1ccc(-c2[nH]nc(N)c2-c2cc(OC)c(OC)c(OC)c2)cc1 ? active

What outcome does the record of this test show for Nc1nn(C(=O)Nc2c(F)cccc2F)c2ccccc12 ? inactive

What outcome does the record of this test show for C=C1c2nc3ccccc3n2C=C(c2ccc(Cl)cc2)N1c1ccc(OCCN2CCCCC2)cc1 ? inactive

What outcome does the record of this test show for COc1ccc2c(c1)C(c1cc(OC)c3c(c1)OCO3)C1=C(COC1=O)N2 (stereo not drawn) ? active

What outcome does the record of this test show for COC(=O)c1oc2c(C(=O)/C=C/c3ccc(OC)cc3)c(OCCN3CCOCC3)ccc2c1C ? inactive

***
What outcome does the record of this test show for NC(N)=N/N=C/c1c(-c2cccnc2)nc2sc(Cl)cn12 ? inactive

What outcome does the record of this test show for O=C1c2c(Cl)c(Cl)c(Cl)c(Cl)c2C(=O)C2(Cl)CC=CCC12Cl (stereo not drawn) ? inactive

###

Entries annotated with measured GI50
# System: OVCAR-3 ovarian
# protocol-summary: NCI tumour cell line growth inhibition, 48 h

Name the reported GI50 value associated with the compound CCCCCCCCCCCCCCCCN(CC)CC 2.87 µM

Name the reported GI50 value associated with the compound COc1ccc(Cn2cc3c(c2-c2cc(OC)c(OC)c(OC)c2)CCc2c(CO)noc2-3)cc1 0.312 µM

Name the reported GI50 value associated with the compound CC[PH+](CC)CC.CC[PH+](CC)CC.[Au] 18.2 µM

Name the reported GI50 value associated with the compound C=CC(=O)N1CC[C@H](n2nc(C#Cc3cc(OC)cc(OC)c3)c3c(N)ncnc32)C1 4.13 µM

Name the reported GI50 value associated with the compound Nc1nn(C(=O)Nc2c(F)cccc2F)c2ccccc12 65.7 µM

***
Name the reported GI50 value associated with the compound CN(C)CCNC(=O)c1ccc2oc3cc4ccccc4c(=O)n3c2c1 15.4 µM

Name the reported GI50 value associated with the compound Cc1sc2c(c1C)C(c1ccc(Cl)cc1)=N[C@@H](CC(=O)NCCCN1CCN(C)CC1)c1nnc(C)n1-2 1.33 µM
